Could you please report measured EC50 for the items listed next?
# tested.on: WT human STING isoform (Homo sapiens (Human), UniProt Q86WV6, H232R)
# Sequence (Q86WV6 whole entry H232R, canonical isoform): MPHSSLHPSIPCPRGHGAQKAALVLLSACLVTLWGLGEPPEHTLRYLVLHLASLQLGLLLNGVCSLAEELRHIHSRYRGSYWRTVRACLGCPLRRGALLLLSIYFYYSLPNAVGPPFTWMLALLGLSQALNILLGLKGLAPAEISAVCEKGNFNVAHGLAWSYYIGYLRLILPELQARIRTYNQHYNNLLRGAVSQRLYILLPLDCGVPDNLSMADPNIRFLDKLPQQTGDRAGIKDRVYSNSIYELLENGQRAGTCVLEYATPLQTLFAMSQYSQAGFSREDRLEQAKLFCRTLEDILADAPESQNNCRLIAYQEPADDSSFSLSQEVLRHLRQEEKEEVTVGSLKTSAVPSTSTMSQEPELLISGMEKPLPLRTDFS
# experiment: THP-1-Dual KI-hSTING-R232 reporter cell line assay
# measurement.conditions: 24 h incubation, luminescence, normalized to ML RR-S2 CDA 40 μM; read-out: EC50 THP-1 Dual KI-hSTING-R232 cells

Problem: Entry NC(=O)c1ccc2c(c1)nc(-c1c(C(=O)O)sc3cccc(Cl)c13)n2CCCCn1c(-c2c(C(=O)O)sc3cccc(Cl)c23)nc2cc(C(N)=O)ccc21 [Example 3] needs its EC50 filled in; supply it.
Solution: > 40 µM

Problem: Identify the reported EC50 for the following entry. CCOC(=O)c1sc2cccc(Cl)c2c1-c1nc2cc(C(N)=O)ccc2n1CCn1c(-c2c(C(=O)OCC)sc3cccc(Cl)c23)nc2cc(C(N)=O)ccc21 [Example A1]
Solution: 12 µM

Problem: Supply measured EC50 of CCOC(=O)c1sc2cccc(C(F)(F)F)c2c1-c1nc2cc(C(N)=O)ccc2n1CCn1c(-c2c(C(=O)OCC)sc3cccc(C(F)(F)F)c23)nc2cc(C(N)=O)ccc21 [Example 18] in your reply.
Solution: > 40 µM

Problem: Look up and state reported EC50 for NC(=O)c1ccc2c(c1)nc(-c1c(C(=O)O)sc3cccc(Cl)c13)n2CCCn1c(-c2c(C(=O)O)sc3cccc(Cl)c23)nc2cc(C(N)=O)ccc21 (single isomer, unassigned) [Example 4.2]
Solution: 19 µM

Problem: Answer with the recorded EC50 for the compound listed here: CCOC(=O)c1sc2ccnc(OC)c2c1-c1nc2cc(C(N)=O)ccc2n1CCn1c(-c2c(C(=O)OCC)sc3ccnc(OC)c23)nc2cc(C(N)=O)ccc21 [Example 6]
Solution: > 40 µM
